- Tested on: Melanoma cell
- protocolDetails: Inhibition of human melanoma cells
- Assay type: functional
quantityName: GI50 (µM)

Some molecules with known GI50 results, for comparison:
# molecule, assayedSystem, readingUnit, value
data = [
    ("Cc1cn2c(/C=N/Nc3ccccn3)c(-c3ccc(Cl)c([N+](=O)[O-])c3)nc2s1", "Melanoma cell", "µM", 18.2),
    ("N=C(N)N/N=C/c1c(-c2ccc(Cl)c([N+](=O)[O-])c2)nc2ccccn12", "Melanoma cell", "µM", 2.04),
    ("N=C(N)N/N=C/c1c(-c2cccs2)nc2n1CCS2", "Melanoma cell", "µM", 21.4),
]

P. COc1cc([N+](=O)[O-])c(OC)cc1-c1nc2sc(Cl)cn2c1/C=N\Nc1ccccn1
Q. N=C(N)N/N=C/c1c(-c2cccs2)nc2sccn12
R. N=C(N)N/N=C/c1c(-c2cc(Cl)sc2Cl)nc2sccn12
S. COc1cc(OC)cc(-c2nc3sccn3c2/C=N/NC(=N)N)c1
Challenge: Returns the items ordered by GI50, from maximum to minimum. The labels, placed in the requested order, form the answer.
Response given: P, Q, S, R

a. CCOC(=O)c1nc2sc(Cl)cn2c1/C=N\NC(=N)N
b. Cc1cn2c(/C=N/NC(=N)N)c(-c3cccs3)nc2s1
c. Cc1cn2c(/C=N/NC(=N)N)c(-c3ccsc3)nc2s1
Challenge: Put these in order: smallest GI50 first, largest last. The labels, placed in the requested order, form the answer.
Response given: b, c, a
(b: 2.24 µM, c: 8.13 µM, a: 19.5 µM)

I. COc1cc([N+](=O)[O-])c(OC)cc1-c1nc2sc(Cl)cn2c1/C=N\NC(=N)N/N=C\c1c(-c2cc(OC)c([N+](=O)[O-])cc2OC)nc2sc(Cl)cn12
II. Cc1cc(-c2nc3sccn3c2/C=N/NC(=N)N)c(C)s1
Challenge: # query: argmin of GI50 over I and II Answer by quoting the chosen item's label.
Response given: I
(I: 1.91 µM, II: 16.2 µM)

I. N=C(N)N/N=C/c1c(-c2ccsc2)nc2sccn12
II. Cc1cc(-c2nc3sc(C)cn3c2/C=N/NC(=N)N)c(C)s1
Challenge: # query: argmin of GI50 over I and II Answer by quoting the chosen item's label.
Response given: II

P. N=C(N)N/N=C/c1c(-c2cc(Cl)sc2Cl)nc2n1CCS2
Q. N=C(N)N/N=C/c1c(-c2ccsc2)nc2n1CCS2
R. N=C(N)N/N=C/c1c(-c2ccc(Cl)c([N+](=O)[O-])c2)nc2sc3ccccc3n12
Challenge: Returns the items ordered by GI50, from maximum to minimum. The labels, placed in the requested order, form the answer.
Response given: Q, P, R
